Biological target: N132Q mutant ZZ122-175 (p62) (Homo sapiens, UniProt Q13501, N132Q)
Construct: GST-fused p62 (122–175) wild type and mutants (N132Q and N132D) were expressed in E. coli; GST (N)
Sequence (Q13501 122-175 N132Q): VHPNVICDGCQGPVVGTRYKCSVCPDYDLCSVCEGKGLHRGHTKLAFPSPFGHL
Experiment: biochemical
pKd: −log10 of the molar value. Peptide text beside a SMILES is read from it.
outcome_measure: pKd

CC[C@H](C)[C@H](NC(=O)[C@@H](N)CCCNC(=N)N)C(=O)N[C@@H](Cc1ccccc1)C(=O)N[C@@H](CO)C(=O)O [RIFS] (H-RIFS-OH) ... 4.67
